Listed sequences paired with reported switch fluorescence ratio
system: ATP; experiment: switch fluorescence ratio, 500 uM ATP over buffer (Cy3 cluster intensity, sum of 5 cycles each) (fold (ratio)); higher = stronger signal-on switching upon ATP binding; sequences stand for … in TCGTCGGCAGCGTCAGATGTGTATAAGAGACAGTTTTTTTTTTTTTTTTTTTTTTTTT…TC; settings: aptamer strand: ATP DNA aptamer (quencher-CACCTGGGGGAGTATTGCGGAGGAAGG + anchor), 100 nM annealed; ATP concentration: 500 uM;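 further: ATP exposure 15 min at 22 °C before imaging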

>  <chain>
AGTGAAAGTT

>  <testTarget>
ATP;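 further: ATP exposure 15 min at 22 °C before imaging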

>  <switch fluorescence ratio>
1

$$$$
>  <chain>
CGATATGTTC

>  <testTarget>
ATP;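 further: ATP exposure 15 min at 22 °C before imaging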

>  <switch fluorescence ratio>
1.01

$$$$
>  <chain>
TTTAGTTCTG

>  <testTarget>
ATP;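 further: ATP exposure 15 min at 22 °C before imaging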

>  <switch fluorescence ratio>
0.979

$$$$
>  <chain>
AGTTTGCTTT

>  <testTarget>
ATP;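 further: ATP exposure 15 min at 22 °C before imaging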

>  <switch fluorescence ratio>
0.995

$$$$
>  <chain>
TGGGACGTGG

>  <testTarget>
ATP;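 further: ATP exposure 15 min at 22 °C before imaging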

>  <switch fluorescence ratio>
0.981

$$$$
>  <chain>
CGGTCTGTTC

>  <testTarget>
ATP;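 further: ATP exposure 15 min at 22 °C before imaging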

>  <switch fluorescence ratio>
0.994

$$$$
>  <chain>
TTTTTACCGT

>  <testTarget>
ATP;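 further: ATP exposure 15 min at 22 °C before imaging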

>  <switch fluorescence ratio>
1.12

$$$$
>  <chain>
TTTCGGCGGG

>  <testTarget>
ATP;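 further: ATP exposure 15 min at 22 °C before imaging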

>  <switch fluorescence ratio>
1

$$$$
>  <chain>
CAAAGTAGGG

>  <testTarget>
ATP;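 further: ATP exposure 15 min at 22 °C before imaging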

>  <switch fluorescence ratio>
0.991

$$$$
>  <chain>
AAAGAGTGAA

>  <testTarget>
ATP;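 further: ATP exposure 15 min at 22 °C before imaging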

>  <switch fluorescence ratio>
0.999

$$$$
>  <chain>
TTTGCGGTGG

>  <testTarget>
ATP;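 further: ATP exposure 15 min at 22 °C before imaging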

>  <switch fluorescence ratio>
1.01

$$$$
>  <chain>
TACGATATAC

>  <testTarget>
ATP;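 further: ATP exposure 15 min at 22 °C before imaging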

>  <switch fluorescence ratio>
3.09

$$$$
>  <chain>
ATGATCGGGT

>  <testTarget>
ATP;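 further: ATP exposure 15 min at 22 °C before imaging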

>  <switch fluorescence ratio>
1.02

$$$$
>  <chain>
GAGGTCAGGT

>  <testTarget>
ATP;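 further: ATP exposure 15 min at 22 °C before imaging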

>  <switch fluorescence ratio>
1.01

$$$$
>  <chain>
ATTGAAATTT

>  <testTarget>
ATP;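 further: ATP exposure 15 min at 22 °C before imaging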

>  <switch fluorescence ratio>
1.05

$$$$
>  <chain>
CGGCCCCCGT

>  <testTarget>
ATP;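 further: ATP exposure 15 min at 22 °C before imaging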

>  <switch fluorescence ratio>
1.4

$$$$
>  <chain>
CGATCTTGGA

>  <testTarget>
ATP;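 further: ATP exposure 15 min at 22 °C before imaging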

>  <switch fluorescence ratio>
0.94

$$$$

----------
Documented switch fluorescence ratio across a set of sequences
test system: ATP; assay: switch fluorescence ratio, 500 uM ATP over buffer (Cy3 cluster intensity, sum of 5 cycles each) (fold (ratio)); higher = stronger signal-on switching upon ATP binding; sequences stand for … in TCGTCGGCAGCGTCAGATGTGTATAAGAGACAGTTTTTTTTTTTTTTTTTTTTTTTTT…TC; conditions: aptamer strand: ATP DNA aptamer (quencher-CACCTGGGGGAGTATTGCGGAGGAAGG + anchor), 100 nM annealed; ATP concentration: 500 uM;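 further: ATP exposure 15 min at 22 °C before imaging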

>  <chain>
GGAAGGCCTA

>  <switch fluorescence ratio>
0.954

$$$$
>  <chain>
AGCACTTTAT

>  <switch fluorescence ratio>
1.05

$$$$
>  <chain>
GACGTTATGT

>  <switch fluorescence ratio>
1

$$$$
>  <chain>
GACGGTAGGG

>  <switch fluorescence ratio>
0.969

$$$$
>  <chain>
ACCCGGCTCC

>  <switch fluorescence ratio>
1.23

$$$$
>  <chain>
CAGGCTAGGT

>  <switch fluorescence ratio>
0.987

$$$$
>  <chain>
GATGTAAACC

>  <switch fluorescence ratio>
1.01

$$$$
>  <chain>
GGGAAGTCAA

>  <switch fluorescence ratio>
1.02

$$$$
>  <chain>
TCGTTACAGA

>  <switch fluorescence ratio>
1.02

$$$$
>  <chain>
TTTTAAAACT

>  <switch fluorescence ratio>
1.05

$$$$
>  <chain>
ATCGTCAGAA

>  <switch fluorescence ratio>
0.969

$$$$
>  <chain>
GGGTCTGGGT

>  <switch fluorescence ratio>
0.984

$$$$
>  <chain>
GTTGTAGACA

>  <switch fluorescence ratio>
0.985

$$$$
>  <chain>
TTTCGGGCCA

>  <switch fluorescence ratio>
1.12

$$$$
>  <chain>
ATTAGAACGG

>  <switch fluorescence ratio>
1.01

$$$$
>  <chain>
AATCGGTTTG

>  <switch fluorescence ratio>
0.987

$$$$
>  <chain>
CGAGGGGCTG

>  <switch fluorescence ratio>
1.03

$$$$
>  <chain>
CTCGGATTGG

>  <switch fluorescence ratio>
1

$$$$
>  <chain>
ATATGCTATC

>  <switch fluorescence ratio>
1.02

$$$$
>  <chain>
GTTTTGGTAT

>  <switch fluorescence ratio>
1.01

$$$$
>  <chain>
AACATTTCTT

>  <switch fluorescence ratio>
0.976

$$$$
>  <chain>
CGTCAAACAT

>  <switch fluorescence ratio>
1.08

$$$$
>  <chain>
AGTTTAGGTA

>  <switch fluorescence ratio>
1.01

$$$$
>  <chain>
CGGTTTGTTA

>  <switch fluorescence ratio>
0.985

$$$$
>  <chain>
ACGTTAAGCG

>  <switch fluorescence ratio>
1.01

$$$$
>  <chain>
TGAACAAGGG

>  <switch fluorescence ratio>
0.962

$$$$
>  <chain>
TAACTGGCTT

>  <switch fluorescence ratio>
1.01

$$$$
>  <chain>
GCGGGTTAGT

>  <switch fluorescence ratio>
1.13

$$$$
>  <chain>
GTCGTAACAG

>  <switch fluorescence ratio>
0.986

$$$$
>  <chain>
CTGGCAGGGC

>  <switch fluorescence ratio>
1.07

$$$$
>  <chain>
CCTTACCTTG

>  <switch fluorescence ratio>
1.04

$$$$
>  <chain>
AGAGGTATCT

>  <switch fluorescence ratio>
0.987

$$$$
>  <chain>
AGGTACAGGG

>  <switch fluorescence ratio>
1.01

$$$$
>  <chain>
CTGTCTGGCT

>  <switch fluorescence ratio>
1.02

$$$$
>  <chain>
AATCTATCCC

>  <switch fluorescence ratio>
1.03

$$$$
>  <chain>
TTGAGTACTT

>  <switch fluorescence ratio>
0.988

$$$$
>  <chain>
GTTTTTTGTA

>  <switch fluorescence ratio>
0.994

$$$$
>  <chain>
TATAGGAAAA

>  <switch fluorescence ratio>
1.35

$$$$
>  <chain>
TTGGGTAGCA

>  <switch fluorescence ratio>
0.997

$$$$
>  <chain>
AGTATATGCC

>  <switch fluorescence ratio>
1

$$$$
>  <chain>
AGAGGGTTGT

>  <switch fluorescence ratio>
0.992

$$$$
>  <chain>
TGGGAGGCGT

>  <switch fluorescence ratio>
0.992

$$$$
>  <chain>
ATAAAATTGG

>  <switch fluorescence ratio>
0.988

$$$$
>  <chain>
TGGTTAAAGG

>  <switch fluorescence ratio>
0.978

$$$$
>  <chain>
CAGTTGCTGA

>  <switch fluorescence ratio>
0.999

$$$$
>  <chain>
TTTTTAATAG

>  <switch fluorescence ratio>
0.986

$$$$
>  <chain>
AGTAAGTTGG

>  <switch fluorescence ratio>
0.967

$$$$
>  <chain>
TTGTTTTGAT

>  <switch fluorescence ratio>
0.984

$$$$
>  <chain>
ACGTTGCTGA

>  <switch fluorescence ratio>
1.02

$$$$
>  <chain>
TTTGGGAGTT

>  <switch fluorescence ratio>
1.05

$$$$
>  <chain>
ATTAATGTGT

>  <switch fluorescence ratio>
0.999

$$$$
>  <chain>
GTGTGCAACT

>  <switch fluorescence ratio>
1.02

$$$$
>  <chain>
CAGTCAGCGG

>  <switch fluorescence ratio>
1.01

$$$$
>  <chain>
TTCATCGGGG

>  <switch fluorescence ratio>
0.979

$$$$
>  <chain>
CGCTTAACCG

>  <switch fluorescence ratio>
1.04

$$$$
>  <chain>
GACAGGTATC

>  <switch fluorescence ratio>
1.01

$$$$
>  <chain>
TTATGAATAG

>  <switch fluorescence ratio>
0.99

$$$$
>  <chain>
GGCGATTTTG

>  <switch fluorescence ratio>
0.958

$$$$
>  <chain>
GCTATATTTG

>  <switch fluorescence ratio>
1.01

$$$$
>  <chain>
TGGTTGGGCC

>  <switch fluorescence ratio>
0.985

$$$$
>  <chain>
CTATGTTGTT

>  <switch fluorescence ratio>
1

$$$$
>  <chain>
TAATGCGGTT

>  <switch fluorescence ratio>
1.02

$$$$
>  <chain>
TTGGGCAAGG

>  <switch fluorescence ratio>
1.02

$$$$
>  <chain>
ACAGTTCGGG

>  <switch fluorescence ratio>
0.965

$$$$
>  <chain>
TGAAAAAAGG

>  <switch fluorescence ratio>
0.966

$$$$
>  <chain>
GGTATCGGTT

>  <switch fluorescence ratio>
0.992

$$$$
>  <chain>
TGGTTTGGGG

>  <switch fluorescence ratio>
0.974

$$$$
>  <chain>
AGCGGCAACG

>  <switch fluorescence ratio>
1.08

$$$$
>  <chain>
TAGAAGGGTT

>  <switch fluorescence ratio>
1

$$$$
>  <chain>
GCTCGGGGTT

>  <switch fluorescence ratio>
1.01

$$$$
>  <chain>
CATCATTGGC

>  <switch fluorescence ratio>
0.974

$$$$
>  <chain>
CGAGGGGATA

>  <switch fluorescence ratio>
1.04

$$$$
>  <chain>
GAAGGGGGTG

>  <switch fluorescence ratio>
1.02

$$$$
>  <chain>
TTTCATTTTA

>  <switch fluorescence ratio>
0.988

$$$$
>  <chain>
GTCGCGTAGG

>  <switch fluorescence ratio>
1.03

$$$$
>  <chain>
TCTTATGCGG

>  <switch fluorescence ratio>
0.998

$$$$
>  <chain>
GCTATACGTA

>  <switch fluorescence ratio>
1.22

$$$$
>  <chain>
GGTCCGTTTC

>  <switch fluorescence ratio>
1.01

$$$$
